Test system: TK-10 renal
Experiment: NCI tumour cell line growth inhibition, 48 h
parameterMeasured: TGI

Here is how some compounds turned out for TGI.
# compound, TGI
data = [
    ("C1OCC2S[C@@H]3COCO[C@@H]3C2O1 (stereo not given in full)", "> 100 µM"),
    ("N#Cc1cc(C#N)c(Cl)nc1N", "> 10 µM"),
    ("O=C1Oc2ccccc2C(=O)/C1=C/N1C(=O)N/C(=C\\c2ccccc2O)C1=O", "> 100 µM"),
]

Suppose we examine the compound Clc1ccc2c(SCC3CO3)c3ccccc3nc2c1 (stereo not given) ; what TGI value has been reported?
3.35 µM

Any idea what its TGI is? The compound is "COC(=O)[C@H](Cc1ccccc1)NC(=O)c1ccc(CNC(=O)/C=C/c2ccc(-c3ccccc3)cc2)cc1"
> 100 µM

Any idea what TGI was measured for CC[P+](C)(Cc1ccccc1)c1ccccc1 (stereo not given) ?
> 100 µM

###

System: RPMI-8226 leukemia
Experiment: NCI tumour cell line growth inhibition, 48 h
parameterMeasured: TGI

# molecule, systemUnderTest, TGI
rows = [
    ("COc1cc2c(cc1OC)C13CCN4C=C5CCOC6CC(=O)N2C1C6C5CC43 (stereo unspecified)", "RPMI-8226 leukemia", "> 100 µM"),
]

Now for a further molecule.
TGI of "Cc1nc2c(=S)[nH]ncc2[nH]1" on RPMI-8226 leukemia?
> 100 µM

###

Tested on: RXF 393 renal
Assay: NCI tumour cell line growth inhibition, 48 h
Note to self: values exactly at 20 µM are 1.0. So TGI at or above 20 µM is 1.0, below is 0.0.

Past entries and their recorded results:
# compound, assignedClass
data = [
    ("N#C/C(=C\\c1ccccc1O)C(N)=O", 1.0),
    ("O=C(O)c1ccccc1.[Ag]", 1.0),
    ("COC(=O)[C@@H](NC(=O)NC(=O)NC(=O)CI)C(C)C", 0.0),
    ("Nc1nc2c(=O)c3ccccc3sc2s1", 1.0),
    ("O=C(O)CSCc1cccc2ccccc12", 1.0),
    ("O=C(Cc1ccccc1)NCCc1ccc(O)c(O)c1", 1.0),
]

Determine whether measured TGI meets or exceeds 20 µM for "C[n+]1c(/C=C\C=C\N2CCCCC2)sc2ccccc21"
0.0

###

System: IGROV1 ovarian
Test: NCI tumour cell line growth inhibition, 48 h
parameterMeasured: GI50

Sample records with GI50:
# compound, systemUnderTest, GI50
measured = [
    ("CC1=C([Se]CC(OC(=O)[C@@H](CSSC(C)(C)C)NC(=O)OC(C)(C)C)C(=O)NC(C)(C)C)C(=O)c2ccccc2C1=O (stereo partly drawn)", "IGROV1 ovarian", "1150 nM"),
    ("O=P([O-])(O)OP(=O)([O-])O.[NH-][C@H]1CCCC[C@@H]1[NH-].[OH-].[OH-].[Pt+4]", "IGROV1 ovarian", "21800 nM"),
]

Now, please, on to the next compound.
So what's the measured GI50 for this one? "Cc1c2cc[nH]c(=O)c2c(C)c2c1[nH]c1cc(OCCN3CCN(C)CC3)ccc12"
799 nM

###

Below, each entry is listed alongside its reported TGI.
System: MALME-3M melanoma
Experiment: NCI tumour cell line growth inhibition, 48 h
Number in µM, nothing else.

# smilesRepr, systemUnderTest, TGI / µM
measured = [
    ("C/C=C/[C@@]1(OC(=O)c2ccccc2)C[C@@H]2CCCC[C@@H]21", "MALME-3M melanoma", 35.3),
]

Now for another entry.
For the compound "CN1CCN(c2ccc(C(=O)Nc3n[nH]c4ccc(Cc5cc(F)cc(F)c5)cc34)c(NC3CCOCC3)c2)CC1" , what TGI is on record?
3.01

###

Each record here notes measured TGI.
Test system: MALME-3M melanoma
Assay: NCI tumour cell line growth inhibition, 48 h
Only the number, expressed in µM, is required.

# smilesRepr, parameterMeasured, measurementUnits, observedMeasurement
measured = [
    ("Cc1c2cnccc2c(C)c2c1c1cc(C3OCCCO3)ccc1n2C", "TGI", "µM", 1.12),
]

I have this molecule here, "CC(C)(C)OC(=O)NCCNC1=CC(=O)c2nc3ccccc3c3ccnc1c23" , and I need its recorded TGI.
81.8

Report TGI for "CCCCCCCCCCCOC(=S)NC(C)C" please.
49.5

Consider the molecule shown here: "CC/C(Cc1ccccc1)=C(\c1ccc(OCCN2CCCCCC2)cc1)c1ccc(OC(=O)NCc2ccccc2)cc1" What is its recorded TGI?
1.94

###

Tested on: COLO 205 colon
Assay: NCI tumour cell line growth inhibition, 48 h; in the data active means GI50 below about 0.43 µM; inactive means the rest
Please answer using one outcome listed in active, inactive

Record excerpt, results attached:
# compound, assignedClass
data = [
    ("CC/C(Cc1ccccc1)=C(\\c1ccc(OCCN2CCCCCC2)cc1)c1ccc(OC(=O)NCc2ccccc2)cc1", "inactive"),
    ("O=C(/C=C/c1ccc(B(O)O)cc1)/C=C/c1ccc(B(O)O)cc1", "inactive"),
    ("COc1cccc(C2CC(c3cc(OC)c(OC)c(OC)c3)=NN2)c1 (stereo not drawn)", "inactive"),
    ("COC1=CC(c2ccc[nH]2)=N/C1=C\\c1[nH]c(C)c(C(=O)OCc2ccccc2)c1C", "active"),
    ("CN(C)CCCOc1ccccc1NC1=C(Cl)C(=O)C(Nc2ccccc2OCCCN(C)C)=C(Cl)C1=O", "active"),
]

Dear all, I need the recorded test outcome for "Cc1c2cnccc2c(C)c2c1c1cc(C3OCCCO3)ccc1n2C" , thank you.
active

State the result this test recorded for CC1[C@@H]2[C@@H](C=C3C4CCC5Cc6nc7c(nc6C[C@@]5(C)C4C[C@H](O)[C@]32CO)CC2CCC3C4=C[C@H]5O[C@@]6(O[C@@](C)(CO)C[C@@H]6O)C(C)[C@@]5(O)[C@]4(C)[C@@H](O)CC3[C@]2(C)C7)O[C@]12CCC(C)(C)O2 (stereo partly drawn) .
active

// return assay outcome for "O=P([O-])(O)OP(=O)([O-])O.[NH-][C@H]1CCCC[C@@H]1[NH-].[OH-].[OH-].[Pt+4]"
inactive

###

Listed compounds paired with reported GI50
System: SF-268 CNS
Assay: NCI tumour cell line growth inhibition, 48 h

Please review the following examples before continuing.
# smilesRepr, systemUnderTest, GI50
records = [
    ("Cc1cc(C)nc(NC(N)=NCCc2ccccc2)n1", "SF-268 CNS", "3.4 µM"),
    ("COc1cccc([C@H]2CC(=O)c3cc4c(cc3N2)OCO4)c1", "SF-268 CNS", "4.7 µM"),
    ("C[n+]1c(/C=C\\C=C\\N2CCCCC2)sc2ccccc21", "SF-268 CNS", "0.457 µM"),
]

Now turn to the next compound.
Item "C=C(CNC(=O)Nc1ccc(-c2ccccc2)cc1)c1ccc(C(=O)Nc2ccccc2N)cc1" has what recorded GI50?
> 100 µM

###

Test system: MALME-3M melanoma
Test: NCI tumour cell line growth inhibition, 48 h
parameterMeasured: TGI

Solved cases below.
# compound, TGI
rows = [
    ("COc1cccc(C2CC(c3cc(OC)c(OC)c(OC)c3)=NN2)c1 (configuration not stated)", "> 100 µM"),
    ("O=C1C=CC2CCC1C2 (configuration not stated)", "> 100 µM"),
    ("O=C(Nc1c(O)[nH]c(=S)[nH]c1=O)c1ccccn1", "> 100 µM"),
    ("O=c1cc(CNC2CCCC2)[nH]c(=O)[nH]1", "> 100 µM"),
    ("CN(C)CCCOc1ccccc1NC1=C(Cl)C(=O)C(Nc2ccccc2OCCCN(C)C)=C(Cl)C1=O", "2.43 µM"),
]

Request: TGI, test system MALME-3M melanoma, entry "Cc1ccc(C(=O)O/N=C2/CCCC/C2=C\c2ccccc2)cc1"
> 100 µM

Notebook entry, MALME-3M melanoma assay: TGI of O=C1c2ccccc2C2(O)Nc3cc(O)ccc3C12O (configuration not stated) = ?
> 100 µM

Given the entry "OCCOc1ccc(-c2cc(-c3ccccn3)nc(-c3ccccn3)c2)cc1" , what TGI was observed with MALME-3M melanoma?
17.5 µM

###

System: COLO 205 colon
Assay: NCI tumour cell line growth inhibition, 48 h
GI50 values, listed per item

Look over these answered cases.
# compound, systemUnderTest, parameterMeasured, observedMeasurement
records = [
    ("C=CC(=O)Nc1ccc(Nc2nccc(-c3ccc(N4CCCC4)c(C#N)c3)n2)cc1", "COLO 205 colon", "GI50", "> 25 µM"),
    ("Nc1ccn(C2OC(CO)C(O)C2F)c(=O)n1 (stereo unspecified)", "COLO 205 colon", "GI50", "688 µM"),
]

Query (compound): "COc1cc(/C(Cl)=C/C=C/C(=O)c2c(C)[n+]([O-])c3ccc(Cl)cc3[n+]2[O-])cc(OC)c1OC" ; field requested: GI50
10 µM

What does the record list as GI50 for "Cc1ccccc1NC(=S)Nc1ccccn1" ?
> 100 µM

So what's the measured GI50 for this one? "CCCC(=O)O"
2550 µM

Any idea what its GI50 is? The compound is "Cc1nc2sccn2c1/C=C1/C(=O)Nc2ccccc21"
3.11 µM
